molecular target: Estrogen receptor (Mus musculus) (UniProt O08537+P19785); assay: Percent inhibition of estrone-stimulated uterotrophic effect in mice at 2 ug dose; type: functional
Sequence (O08537 whole entry, looked up): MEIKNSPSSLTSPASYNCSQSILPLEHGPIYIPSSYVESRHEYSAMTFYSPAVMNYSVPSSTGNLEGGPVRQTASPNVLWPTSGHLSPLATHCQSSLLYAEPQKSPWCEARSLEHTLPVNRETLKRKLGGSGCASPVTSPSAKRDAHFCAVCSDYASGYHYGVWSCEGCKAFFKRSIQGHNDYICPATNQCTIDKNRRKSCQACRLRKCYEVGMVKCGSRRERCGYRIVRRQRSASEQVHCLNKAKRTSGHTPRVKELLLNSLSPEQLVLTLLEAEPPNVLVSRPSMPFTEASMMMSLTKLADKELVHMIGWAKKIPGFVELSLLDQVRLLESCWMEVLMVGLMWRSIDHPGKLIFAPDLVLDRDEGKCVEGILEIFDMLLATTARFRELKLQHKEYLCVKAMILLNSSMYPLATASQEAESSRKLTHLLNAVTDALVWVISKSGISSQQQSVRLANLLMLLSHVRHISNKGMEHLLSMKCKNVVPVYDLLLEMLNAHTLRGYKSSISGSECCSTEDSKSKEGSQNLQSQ
Sequence (P19785 whole entry, looked up): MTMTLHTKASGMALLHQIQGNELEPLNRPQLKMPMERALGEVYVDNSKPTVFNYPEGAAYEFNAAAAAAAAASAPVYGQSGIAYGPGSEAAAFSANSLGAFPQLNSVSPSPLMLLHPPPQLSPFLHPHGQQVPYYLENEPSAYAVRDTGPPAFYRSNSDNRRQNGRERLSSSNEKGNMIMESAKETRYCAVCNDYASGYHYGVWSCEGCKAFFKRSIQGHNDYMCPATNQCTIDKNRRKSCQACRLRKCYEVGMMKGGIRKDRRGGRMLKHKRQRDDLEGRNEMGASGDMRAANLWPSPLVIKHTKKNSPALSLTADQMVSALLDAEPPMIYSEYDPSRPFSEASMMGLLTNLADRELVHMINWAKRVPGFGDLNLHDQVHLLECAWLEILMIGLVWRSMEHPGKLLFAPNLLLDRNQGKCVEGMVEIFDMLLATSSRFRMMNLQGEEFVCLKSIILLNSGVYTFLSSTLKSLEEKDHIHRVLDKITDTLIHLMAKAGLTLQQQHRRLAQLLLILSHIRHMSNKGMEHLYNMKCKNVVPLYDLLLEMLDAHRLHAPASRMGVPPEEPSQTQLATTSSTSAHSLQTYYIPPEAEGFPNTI
observable: inhibition (%)

// worked examples, inhibition included
{"compound": "CCC1Cc2cc(OC(C)=O)ccc2-c2c(C=O)c3cc(OC(C)=O)ccc3n21 (stereo not given)", "measured.target": "Estrogen receptor (Mus musculus) (UniProt O08537+P19785)", "inhibition (%)": 25}
{"compound": "CC(=O)Oc1ccc2c(c1)CC(C)n1c-2c(C=O)c2cc(OC(C)=O)ccc21 (stereo not given)", "measured.target": "Estrogen receptor (Mus musculus) (UniProt O08537+P19785)", "inhibition (%)": 0}
{"compound": "CCCCC1Cc2cc(OC(C)=O)ccc2-c2c(C=O)c3cc(OC(C)=O)ccc3n21 (stereo not given)", "measured.target": "Estrogen receptor (Mus musculus) (UniProt O08537+P19785)", "inhibition (%)": 20}
{"compound": "CC(=O)Oc1ccc2c(c1)CC(C)n1c-2c(C=O)c2ccc(OC(C)=O)cc21 (stereo not given)", "measured.target": "Estrogen receptor (Mus musculus) (UniProt O08537+P19785)", "inhibition (%)": 20}
{"compound": "CCCCCC1Cc2cc(OC(C)=O)ccc2-c2c(C=O)c3ccc(OC(C)=O)cc3n21 (stereo not given)", "measured.target": "Estrogen receptor (Mus musculus) (UniProt O08537+P19785)", "inhibition (%)": 19}

(a) CCCC1Cc2cc(OC(C)=O)ccc2-c2c(C=O)c3ccc(OC(C)=O)cc3n21 (stereo not given)
(b) CCCC1Cc2cc(OC(C)=O)ccc2-c2c(C=O)c3cc(OC(C)=O)ccc3n21 (stereo not given)
(c) CCCCCC1Cc2cc(OC(C)=O)ccc2-c2c(C=O)c3cc(OC(C)=O)ccc3n21 (stereo not given)
(d) CCC1Cc2cc(OC(C)=O)ccc2-c2c(C=O)c3ccc(OC(C)=O)cc3n21 (stereo not given)
(e) CCCCC1Cc2cc(OC(C)=O)ccc2-c2c(C=O)c3ccc(OC(C)=O)cc3n21 (stereo not given)
[ask] Your job: order these 5 records by inhibition, ascending. Answer by writing out the labels in the requested order.
[reply] c, e, d, b, a
